- method_description: Maximum solubility and guest/host molar ratios in 45% hydroxypropyl-β-cyclodextrin (Example 6)
- Format: physicochemical
- condition_summary: 45% hpbcd, maximum solubility
outcome_measure: solubility (mg/mL)
Give the quantity in mg/mL, number only.

Given item C[C@@H](CO)CCC[C@@H](C)[C@H]1CC[C@H]2[C@@H]3CC=C4C[C@@H](O)CC[C@]4(C)[C@H]3CC[C@]12C [26-hydroxy cholesterol] , the value recorded as its solubility is 20

###

- method_description: Maximum solubility and guest/host molar ratios in 45% hydroxypropyl-β-cyclodextrin (Example 6)
- Format: physicochemical
- condition_summary: 45% hpbcd, source C (Wacker)
outcome_measure: solubility (mg/mL)
Use mg/mL as the unit, but write only the number.

Please fill in: solubility reported for CC(=O)Nc1nnc(S(N)(=O)=O)s1 [acetazolamide] = 20
